The reported numbers originate from patent EP0193189A1.

Provide the reported LC50 at 48 h of each item.
# ASSAY NAME: Test Example 9: fish toxicity test
# Type: in vivo, Cyprinida carpio
# RUN CONDITIONS: water; young carp; forty-eight hours; 25 ± 1°C; Probit method; read-out: LC50 value (ppm)

Prompt: Record request: LC50 at 48 h value, item C#CC(C)(CCCc1cccc(Oc2ccccc2)c1)c1ccc(OCC)cc1 (stereo not drawn) [(3)]
Response: > 10 µg/mL

Prompt: Record request: LC50 at 48 h value, item CCOC(=O)CC(SP(=S)(OC)OC)C(=O)OCC (stereo not drawn) [(D), Malathion, reference compound]
Response: 4.5 µg/mL

Prompt: Record request: LC50 at 48 h value, item C#CC(C)(CCCc1ccc(F)c(Oc2ccccc2)c1)c1ccc(OCC)cc1 (stereo not drawn) [(4)]
Response: > 10 µg/mL

---

# Test system: houseflies (Musca domestica) of WHO strains
# ASSAY NAME: Test Example 6: housefly filter paper and sucrose bait test
# Format: in vivo
# RUN CONDITIONS: 0.7 ml on filter paper with sucrose bait, adult females, after 48 hours, read-out: LC50 value (ppm)
MEASUREMENT TYPE: LC50 (mg/L)
Numeric only. Scale: mg/L

Prompt: Record request: LC50 value, item C#CC(C)(CCCc1ccc(F)c(Oc2ccc(F)cc2)c1)c1ccc(OCC)cc1 (stereo not shown)
Response: 14

Prompt: Record request: LC50 value, item CCOc1ccc(C(C)(C)COCc2cccc(Oc3ccccc3)c2)cc1 [(B), reference compound]
Response: 28

Prompt: Record request: LC50 value, item C#CC(C)(CCCc1ccc(F)c(Oc2ccccc2)c1)c1ccc(OCC)cc1 (stereo not shown)
Response: 18

Prompt: Record request: LC50 value, item C#CC(C)(CCCc1ccc(F)c(Oc2ccccc2)c1)c1ccc(OC(F)F)cc1 (stereo not shown)
Response: 15

Prompt: Record request: LC50 value, item C#CC(C)(CCCc1ccc(F)c(Oc2ccccc2)c1)c1ccc(C(F)(F)F)cc1 (stereo not shown)
Response: 13

Prompt: Record request: LC50 value, item C#CC(C)(CCCc1ccc(F)c(Oc2ccccc2)c1)c1ccc(CC)cc1 (stereo not shown)
Response: 17

Prompt: Record request: LC50 value, item C#CC(C)(CCCc1ccc(F)c(Oc2ccccc2)c1)c1ccc(OC)cc1 (stereo not shown)
Response: 13

Prompt: Record request: LC50 value, item C#CC(C)(CCCc1ccc(F)c(Oc2ccccc2)c1)c1ccc(OC(F)F)c(Cl)c1 (stereo not shown)
Response: 11

Prompt: Record request: LC50 value, item C#CC(C)(CCCc1ccc(F)c(Oc2ccccc2)c1)c1ccc2c(c1)OCO2 (stereo not shown)
Response: 13

Prompt: Record request: LC50 value, item C#CC(C)(CCCc1ccc(F)c(Oc2ccccc2)c1)c1ccc(OCC)c(Cl)c1 (stereo not shown)
Response: 12
